The origin of these recorded values is ChEMBL document CHEMBL1201862.

Tested on: SK-MEL-28
Assay: NCI tumour cell line growth inhibition, 48 h
Activity calls are given as the source filed them. Cut-off read from the data, not from the text of the source: active = GI50 up to about 1.1 µM and inactive = higher. Non-standard residues stand in square brackets, D forms with d. Residues, ends and D or L forms follow the SMILES beside them. *: point of attachment. Cbz = O=C(OCc1ccccc1)*; Boc = CC(C)(C)OC(=O)*; Aib = CC(C)(N)C(=O)O; OBn = c1ccc(CO*)cc1; OtBu = CC(C)(C)O*; βAla = NCCC(=O)O
Return exactly one item of label 1 = active, label 0 = inactive

# input Fill in: this test's call for "CN(C)CCO/N=C1/C=C2CC[C@H]3[C@@H]4CC[C@H](O)[C@@]4(C)CC[C@@H]3[C@@]2(C)CC1" is ___
# output label 0

# input Hey, what did the test say about "COc1ccc(OCC(C)(C)O)cc1" ?
# output label 0

# input What call does the record list for "C=C1C(=O)O[C@@H]2C[C@@]3(C)[C@H](O)CCC(=C)[C@@H]3C[C@H]12" ?
# output label 0

# input Given "C/C(CC/C(C)=N/O)=N\O" , state the outcome it received in this test.
# output label 0

# input Kindly provide the recorded test outcome for the following compound: "CCOC(=O)c1ccc(C(=O)n2ccnc2)[nH]1"
# output label 0

# input Outcome logged for O=C1C(=O)N(c2ccc(Cl)cc2)C(=O)/C(=N/c2cccc3c(=O)[nH][nH]c(=O)c23)C1c1nc2ccccc2o1 (centres undefined) in this assay:
# output label 0

# input Could you please tell me the result logged for COc1ccc(OC)c(N2CC(N)C2=O)c1 (centres undefined) in this assay?
# output label 0

# input Assay result, entry "C=Cc1cnc([N+](=O)[O-])n1C" — outcome?
# output label 0

# input So what was the verdict on "CCCCC[C@H]1CC=CC(=O)O1" in this test?
# output label 0

# input State the result this test recorded for "CC(C)C(=O)/C=C/c1ccc(Br)cc1" .
# output label 0

# input What was the test verdict on "CCN(CC)CCCNc1c2c(Cl)cc(Cl)cc2nc2nc(O)nc(C)c12" ?
# output label 0

# input Check the results log: what was the call for "CN1CN(c2ccccc2)C2(CCN(CCCC(=O)c3cccs3)CC2)C1=O" ?
# output label 0

# input # lookup: test call for Cc1ccc2nc3ccccc3c(C3C4C(=O)N(c5ccc(F)cc5)C(=O)C4ON3C(C(N)=O)c3ccccc3)c2c1 (centres undefined)
# output label 0

# input For this compound, state the assay outcome: COc1ccc(C(OCC2OC(n3cc(C)c(=O)[nH]c3=O)CC2n2cc(Cn3cc(F)c(=O)[nH]c3=O)nn2)(c2ccccc2)c2ccccc2)cc1 (centres undefined)
# output label 0

# input Please indicate how the test categorized "O/N=C\C(=N/O)Nc1ccc(Cc2ccc(NC(/C=N\O)=N/O)cc2)cc1" .
# output label 0

# input Lab log entry: "CCOC(=O)c1oc2c(OC)ccc3c2c1CCC3" — outcome as called in the assay?
# output label 0

# input So what was the verdict on "Cc1ccc2nc3c(=O)[nH]c(=O)nc-3n(C)c2c1C" in this test?
# output label 0

# input Give the logged outcome of this assay for the following compound: COc1ccc(C2C3C(=O)C=CC(=O)C3[C@@H]2C)cc1OC (some centres undefined)
# output label 0

# input Called result for "CC(=O)/C=C1\CC(=O)N(C)c2ccccc2N1"
# output label 0

# input Query: recorded result category for "BrP(NC1CCCCCC1)(c1ccccc1)(c1ccccc1)c1ccccc1" in this test
# output label 0

# input What classification did "CC(C)=CCC[C@@H](C)C1=C(Nc2ccccc2F)C(=O)C(C)=C(O)C1=O" end up with in this test?
# output label 0

# input So what was the verdict on COC(=O)C1(C(=O)OC)N=C(C)OC1c1ccccc1O (centres undefined) in this test?
# output label 0

# input Call for entry "C/C(NC(=O)c1ccccc1)=C(/C(=O)c1ccccc1)[C@@H]1OC(C)(C)O[C@@H]1[C@H]1COC(C)(C)O1" :
# output label 0

# input Please share the test call associated with "COc1ccc(C(=O)/C=C/c2cccnc2)cc1OC" .
# output label 0

# input Would you mind telling me which call this test gave CCCCCCCCCCCCCCCCCC(=O)NCC(COP(=O)([O-])OCC[N+](C)(C)C)OCC (centres undefined) ?
# output label 0

# input Entry NC(=O)c1ccccc1NC(=O)C(=O)C(c1cnc2ccc([N+](=O)[O-])cc2n1)[N+](=O)[O-] (centres undefined) : call = ?
# output label 0

# input What did the test return for "COc1c(Br)cc(Br)c(OC)c1-c1[nH]c(Br)c(Br)c1Br" ?
# output label 0

# input Tell me the recorded outcome of this test for "O=C1c2ccccc2C(=O)c2c1ccc(O)c2O" .
# output label 0

# input Tell me the recorded outcome of this test for C[C@H]1CCC/C=C/[C@@H]2C[C@H](OC3OC(CO)C(O)C(O)C3O)C[C@H]2[C@H](O)/C=C/C(=O)O1 (some centres undefined) .
# output label 0

# input Status in this test for "CC[C@H]1C=CCC[C@@]2(C[C@@H]3CC[C@@H]4[C@H](C(=O)OCCCCCCCCCCCCCCCC(=O)N(CCCN)CCCCN)[C@]5(CCC[C@@H](C)O5)NC(=[N+]34)N2)O1" ?
# output label 1

# input # lookup: test call for CC(C)Cc1ccc(C(C)/C=C2\CCC(CN(C)C)C2=O)cc1 (centres undefined)
# output label 0

# input Which result was noted for this compound in the test: COC1C(OC(=O)/C=C/C=C/C=C/C=C\C(=O)O)CCC2(CO2)C1C1(C)OC1CC=C(C)C (centres undefined)
# output label 0

# input Which result was noted for this compound in the test: "COc1ccc(C(=O)N2CCN(c3ccc4c(c3)OCC(=O)N4)CC2)cc1OC"
# output label 0

# input Outcome? C[C@@]1(Cc2ccccc2)C(=O)N2[C@@H](CO)C(c3ccccc3)O[C@]2(C)c2ccccc21 (some centres undefined)
# output label 0

# input Please let me know the test result on file for "N#C/N=[N+](\[O-])c1ccc(C(=O)O)cc1" .
# output label 0

# input Call for entry "Cc1cccc(C)c1NC(=S)NC=C1C(=O)c2ccccc2C1=O" :
# output label 0

# input Lab log entry: CC(C)(C)OC(=O)CC(NC(=O)OC(C)(C)C)C(=O)NC(CCCCNC(=O)OCc1ccccc1)C(=O)NC(C)(C)C(=O)NCCC(=O)OCc1ccccc1 (centres undefined) (Boc-D(OtBu)K(Cbz)[Aib][βAla]-OBn; configuration not given here) — outcome as called in the assay?
# output label 0

# input I'd appreciate the recorded outcome for C#CCN1C(=O)CN2C(Cl)(Cl)C2(c2ccccc2)c2cc(Cl)ccc21 (centres undefined) from this test.
# output label 0

# input Identify the outcome logged in this assay for the compound shown: O/N=C1/CCCCCC1NO (centres undefined)
# output label 0

----------
Test system: NCI-H522
Assay: NCI tumour cell line growth inhibition, 48 h
Activity calls are given as the source filed them. Cut-off read from the data, not from the text of the source: active = GI50 up to about 1.1 µM and inactive = higher.
Consider the following molecules; for each one, report its GI50.

# input GI50 lookup needed for COc1ccc(-c2c(C#N)c(O)n(C3OC(CO)C(O)C(O)C3O)c(=S)c2C#N)cc1 (stereo not given) , thanks.
# output > 100 µM (inactive)

# input What value of GI50 has been recorded for this entry: "C#CCN(Cc1ccc2nc(-c3ccccc3)c(Cl)nc2c1)c1cc(OC)c(OC)c(OC)c1"
# output > 100 µM (inactive)

# input If you can, please state the reported GI50 value of Nc1nc(Cl)c(C=O)c(NCC2(CO)CC(CCc3ccccc3)C2)n1 (stereo not given) .
# output 1.71 µM (inactive)

# input Name the reported GI50 value associated with the molecule COC(=O)C(C)Oc1ccc(O)cc1 (stereo not given)
# output > 100 µM (inactive)

# input molecule: "COc1cc(-c2oc3c(OC)cc(OC)c(O)c3c(=O)c2OC)cc(OC)c1OC" ; wanted: its GI50
# output 3.38 µM (inactive)

# input Find the recorded GI50 belonging to "COc1cc(/C=C(\NC(=O)c2ccccc2)c2nc3cncnc3[nH]2)cc(OC)c1OC" and report it.
# output > 100 µM (inactive)

# input Look up GI50: "O=C(O)CNS(=O)(=O)c1ccc(NC(=O)c2ccc(F)cc2)cc1"
# output > 10 µM (inactive)

# input Please look up its GI50: C[C@@]1(Cc2ccccc2)C(=O)N2[C@@H](CO)C(c3ccccc3)O[C@]2(C)c2ccccc21 (stereo not given in full)
# output 81.1 µM (inactive)

# input Look up GI50 for this molecule: "c1ccc2c(c1)nnn2CNc1ccc(N2CCOCC2)cc1"
# output > 100 µM (inactive)

# input I have this molecule here, "CC(C(=O)NCCNC(=O)CCC(=O)N(C)O)C(=O)NCCNC(=O)CCC(=O)N(C)O" , and I need its recorded GI50.
# output > 100 µM (inactive)

# input GI50 for COc1ccc2c(c1)OCCC1=C2SCC2(C)CCN=C12 (stereo not given) ?
# output > 100 µM (inactive)

# input Quick check: GI50 of Cc1ccc2nc3ccccc3c(C3C4C(=O)N(c5ccc(F)cc5)C(=O)C4ON3C(C(N)=O)c3ccccc3)c2c1 (stereo not given) ?
# output 17.5 µM (inactive)

# input # get_value(readout='GI50', item= "O=C(N/N=C1\C(=O)Nc2ccc(Br)cc21)/C(O)=C/C(=O)c1ccc(Cl)cc1" )
# output 23.1 µM (inactive)

# input Recorded GI50 for "COC(=O)CSc1nnc(-c2ccccc2)[nH]1" , please?
# output > 100 µM (inactive)

# input Suppose we examine the molecule CC1(c2nc3ccccc3[nH]2)CCC(C#N)C(C)(C)O1 (stereo not given) ; what GI50 value has been reported?
# output > 100 µM (inactive)

# input Recorded GI50 for COCC#C[C@@]1(O)CCCCC1CC(OC)OC (stereo not given in full) , please?
# output 24.7 µM (inactive)

# input Can you share its GI50? I mean this molecule: "CC(C)=CCC[C@@H](C)C1=C(Nc2ccccc2F)C(=O)C(C)=C(O)C1=O"
# output 4.18 µM (inactive)

# input Reported GI50 for "COc1ccc2c(OC)c3ccoc3nc2c1O" : what is it?
# output > 100 µM (inactive)

# input Recorded GI50 of "C=C[C@H]1CN2CCc3c([nH]c4c([C@@H]5CCCN5C)c(O)ccc34)[C@@H]2C[C@@H]1C[C@H]1c2[nH]c3ccccc3c2CCN1C" , please.
# output 1.85 µM (inactive)

# input For the molecule shown here, "O=c1ccn(CC2(CO)CCC2)c(=O)[nH]1" , give the reported GI50.
# output > 100 µM (inactive)
